Where do the numbers come from? From patent US9340577B2.

- TARGET: A*2601 (Homo sapiens, UniProt P04439, A114D/A173T/A270S/D101N/D185E/E277Q/E87N/F33Y/G231S/I121R/I218V/K168Q/L180W/L300P/L318F/P208A/P217A/Q86R/Q94H/R138Q/S129P/T187R/T323A/T345S/V100A/V358M)
- EXPERIMENT: biochemical
- Assay type: binding
pIC50: −log10 of the molar value. No end group written: not given here.
Outcome: Satisfied for pIC50 of at least 6; Not satisfied for anything lower.

ORDERED RESIDUES: YTPGPGTRY [Peptide 9015.0027]
CATEGORY: Satisfied
--
ORDERED RESIDUES: RYSTQVDPGY [Peptide 9018.0039]
CATEGORY: Not satisfied
--
ORDERED RESIDUES: NTLVKHHMY [Peptide 9018.0009]
CATEGORY: Not satisfied
--
ORDERED RESIDUES: YTDGPGVRY [Peptide 9018.0003]
CATEGORY: Satisfied
--
ORDERED RESIDUES: MRDNWRSELY [Peptide 9015.0155]
CATEGORY: Not satisfied
--
ORDERED RESIDUES: VSDEWRLRRY [Peptide 9018.0016]
CATEGORY: Not satisfied
--
ORDERED RESIDUES: HTAREKHPEY [Peptide 9018.0006]
CATEGORY: Satisfied
--
ORDERED RESIDUES: HMDRELHPEY [Peptide 9018.0005]
CATEGORY: Satisfied
--
ORDERED RESIDUES: MWKFDSRLAL [Peptide 1605.17]
CATEGORY: Not satisfied
--
ORDERED RESIDUES: LADQLIHLY [Peptide 9015.0038]
CATEGORY: Not satisfied
--
ORDERED RESIDUES: HMARELHPEY [Peptide 9015.0176]
CATEGORY: Not satisfied
--
ORDERED RESIDUES: SSDAALYWY [Peptide 1593.08]
CATEGORY: Not satisfied
--
ORDERED RESIDUES: SIDWRQRRY [Peptide 9018.0018]
CATEGORY: Satisfied
--
ORDERED RESIDUES: LSDMVQWAY [Peptide 1593.03]
CATEGORY: Not satisfied
--
ORDERED RESIDUES: LTDQLIHMYY [Peptide 9018.0029]
CATEGORY: Not satisfied
--
ORDERED RESIDUES: LSEMIQWAY [Peptide 1580.17]
CATEGORY: Not satisfied
--
ORDERED RESIDUES: VWDIVYIEY [Peptide 9018.0040]
CATEGORY: Satisfied
--
ORDERED RESIDUES: STEWRQRRY [Peptide 9018.0017]
CATEGORY: Satisfied
--
ORDERED RESIDUES: SFDPIPIHY [Peptide 9015.0002]
CATEGORY: Not satisfied
--
ORDERED RESIDUES: RFALNPGLL [Peptide 1605.01]
CATEGORY: Not satisfied
--
ORDERED RESIDUES: VTRRAKGWFY [Peptide 9018.0013]
CATEGORY: Satisfied
--
ORDERED RESIDUES: NTPPLVKLWY [Peptide 9015.0170]
CATEGORY: Satisfied
--
ORDERED RESIDUES: KYCWNLLQY [Peptide 1595.08]
CATEGORY: Not satisfied
--
ORDERED RESIDUES: GYFPDWQNY [Peptide 1605.15]
CATEGORY: Not satisfied
--
ORDERED RESIDUES: QTDYYGLYY [Peptide 1593.06]
CATEGORY: Satisfied
--
ORDERED RESIDUES: ETKKGKAGY [Peptide 9015.0024]
CATEGORY: Satisfied
--
ORDERED RESIDUES: ETKLGKAGY [Peptide 9015.0023]
CATEGORY: Satisfied
--
ORDERED RESIDUES: KQNPDIVIY [Peptide 1595.10]
CATEGORY: Not satisfied
--
ORDERED RESIDUES: VSDRANGWFY [Peptide 9018.0012]
CATEGORY: Satisfied
--
ORDERED RESIDUES: VSRRANGWFY [Peptide 9015.0179]
CATEGORY: Not satisfied
--
ORDERED RESIDUES: ETWETWWMDY [Peptide 9015.0168]
CATEGORY: Satisfied
--
ORDERED RESIDUES: ISERILSTY [Peptide 1522.03]
CATEGORY: Not satisfied
--
ORDERED RESIDUES: EISNYTDIIY [Peptide 9015.0158]
CATEGORY: Satisfied
--
ORDERED RESIDUES: ISWTYIDDY [Peptide 86.0135]
CATEGORY: Not satisfied
--
ORDERED RESIDUES: VSRDAKGWFY [Peptide 9018.0014]
CATEGORY: Satisfied
--
ORDERED RESIDUES: ETPGIRYQY [Peptide 9015.0017]
CATEGORY: Satisfied
--
ORDERED RESIDUES: WKSLVKHHMY [Peptide 9015.0177]
CATEGORY: Not satisfied
